The reported measurements were obtained from patent US20140056903A1.

Each entry below carries its reported pKd.
- target desc: T1, human GFRα3 expressed with a C-terminal mFc tag (human)
- T1 construct: also called hGFRα3-mFc
- T1 chain: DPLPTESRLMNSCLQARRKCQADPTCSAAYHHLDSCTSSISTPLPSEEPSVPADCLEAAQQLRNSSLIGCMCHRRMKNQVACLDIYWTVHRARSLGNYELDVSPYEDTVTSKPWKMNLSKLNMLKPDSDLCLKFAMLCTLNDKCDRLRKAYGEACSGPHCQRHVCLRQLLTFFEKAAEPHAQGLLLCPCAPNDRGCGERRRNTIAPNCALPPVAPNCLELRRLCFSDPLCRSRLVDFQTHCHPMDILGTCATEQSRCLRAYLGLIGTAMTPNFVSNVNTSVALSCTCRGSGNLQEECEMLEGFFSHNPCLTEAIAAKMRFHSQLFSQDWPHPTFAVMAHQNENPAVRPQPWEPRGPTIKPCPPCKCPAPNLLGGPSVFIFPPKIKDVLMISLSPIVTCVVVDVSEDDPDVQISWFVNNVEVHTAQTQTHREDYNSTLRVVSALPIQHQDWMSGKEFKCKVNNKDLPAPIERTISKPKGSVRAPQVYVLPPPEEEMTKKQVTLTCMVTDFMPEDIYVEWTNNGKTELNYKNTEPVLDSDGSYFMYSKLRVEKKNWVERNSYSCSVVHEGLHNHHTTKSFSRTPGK
- procedure text: SPR, Ab captured, 25C
Interpret pKd as the negative base-10 log of the concentration measured in mol/L.

Field: example entries. Status: answers known.
binder	readout name	readout number
H4H2293P (antibody, human IgG4, V domains shown, human IgG4 Fc (H4H)) VH: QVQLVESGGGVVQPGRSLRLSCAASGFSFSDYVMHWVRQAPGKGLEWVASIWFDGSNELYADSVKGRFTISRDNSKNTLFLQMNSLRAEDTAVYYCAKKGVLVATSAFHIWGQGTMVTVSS VL: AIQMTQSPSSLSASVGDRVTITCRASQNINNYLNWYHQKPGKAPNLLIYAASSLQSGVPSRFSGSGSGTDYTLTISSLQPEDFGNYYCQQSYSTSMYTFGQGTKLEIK	pKd	11.80
H4H2346S (antibody, human IgG4, V domains shown, human IgG4 Fc (H4H)) VH: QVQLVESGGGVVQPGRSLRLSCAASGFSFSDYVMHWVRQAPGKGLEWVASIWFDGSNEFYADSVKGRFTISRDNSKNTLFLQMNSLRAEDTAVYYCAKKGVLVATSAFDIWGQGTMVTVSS VL: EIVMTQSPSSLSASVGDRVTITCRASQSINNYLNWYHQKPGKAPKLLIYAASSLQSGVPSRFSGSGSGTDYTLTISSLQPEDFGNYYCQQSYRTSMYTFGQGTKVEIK	pKd	10.65

Switching to the query record.
In: Looking for the measured pKd of H4H2345S (antibody, human IgG4, V domains shown, human IgG4 Fc (H4H)) VH: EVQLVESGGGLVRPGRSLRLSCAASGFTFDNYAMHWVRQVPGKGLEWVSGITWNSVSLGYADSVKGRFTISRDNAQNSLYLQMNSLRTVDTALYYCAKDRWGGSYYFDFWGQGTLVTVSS VL: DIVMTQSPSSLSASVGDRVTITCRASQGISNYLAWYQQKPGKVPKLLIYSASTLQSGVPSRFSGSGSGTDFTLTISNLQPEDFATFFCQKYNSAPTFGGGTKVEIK , can you help?
Out: 10.23
